These entries and their values trace back to patent US20160244525A1.

Parameter: pKd. Scope: all listed entries.
Biological target: T1, FGFR3-IIIc (human, UniProt P22607 23-375, limits assumed)
T1 construct: also called human FGFR3-IIIc
T1 sequence: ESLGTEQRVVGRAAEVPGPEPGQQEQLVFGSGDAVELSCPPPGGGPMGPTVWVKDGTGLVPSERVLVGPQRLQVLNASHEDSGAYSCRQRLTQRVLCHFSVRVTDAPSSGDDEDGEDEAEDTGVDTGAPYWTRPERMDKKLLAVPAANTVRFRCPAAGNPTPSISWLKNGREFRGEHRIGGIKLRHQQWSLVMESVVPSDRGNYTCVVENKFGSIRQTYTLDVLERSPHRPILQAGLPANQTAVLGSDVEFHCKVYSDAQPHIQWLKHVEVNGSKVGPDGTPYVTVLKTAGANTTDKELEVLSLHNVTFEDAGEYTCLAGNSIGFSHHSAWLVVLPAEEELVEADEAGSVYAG
Test: surface plasmon resonance (Biacore)
// pKd is dimensionless: -log10 of concentration (M)

Solved cases below.
binder | pKd
2B1.1.10 (antibody, V domains shown) VH: EVQLVESGGGLVQPGGSLRLSCAASGFPFTSQGISWVRQAPGKGLEWVGRYWAWDGSTNYADSVKGRFTISADTSKNTAYLQMNSLRAEDTAVYYCARTYGIYDTYDKYTEYVMDYWGQGTLVTVSS VL: DIQMTQSPSSLSASVGDRVTITCRASQDVDTSLAWYKQKPGKAPKLLIYSASFLYSGVPSRFSGSGSGTDFTLTISSLQPEDFATYYCQQSTGHPQTFGQGTKVEIKR | 9.70
2B.1.1 (antibody, human IgG1, kappa, V domains shown, Full IgG1/kappa chains) VH: EVQLVESGGGLVQPGGSLRLSCAASGFTFTSTGISWVRQAPGKGLEWVGRYWAWDGSTNYADSVKGRFTISADTSKNTAYLQMNSLRAEDTAVYYCARTYGIYDLYVDYTEYVMDYWGQGTLVTVSS VL: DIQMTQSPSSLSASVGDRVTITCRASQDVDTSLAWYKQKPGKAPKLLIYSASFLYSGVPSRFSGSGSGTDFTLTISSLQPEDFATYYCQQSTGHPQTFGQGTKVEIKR | 10.18
2B.1.3.12 (antibody, human IgG1, kappa, V domains shown, Full IgG1/kappa chains; also called Mab 2B.1.3.12) VH: EVQLVESGGGLVQPGGSLRLSCAASGFPFTSTGISWVRQAPGKGLEWVGRTHLGDGSTNYADSVKGRFTISADTSKNTAYLQMNSLRAEDTAVYYCARTYGIYDTYDMYTEYVMDYWGQGTLVTVSS VL: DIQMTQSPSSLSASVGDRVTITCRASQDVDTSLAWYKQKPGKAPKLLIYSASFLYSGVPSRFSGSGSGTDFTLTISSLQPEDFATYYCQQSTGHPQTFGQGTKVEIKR | 9.55
2B1.1.12 (antibody, V domains shown) VH: EVQLVESGGGLVQPGGSLRLSCAASGFPFTSTGISWVRQAPGKGLEWVGRYWAWDGSTNYADSVKGRFTISADTSKNTAYLQMNSLRAEDTAVYYCARTYGIYDTYDMYTEYVMDYWGQGTLVTVSS VL: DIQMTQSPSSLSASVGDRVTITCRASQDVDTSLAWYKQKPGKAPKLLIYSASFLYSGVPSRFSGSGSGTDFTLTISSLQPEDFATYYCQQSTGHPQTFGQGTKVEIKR | 9.85
2B1.1.4 (antibody, V domains shown) VH: EVQLVESGGGLVQPGGSLRLSCAASGFTFTSTGISWVRQAPGKGLEWVGRYWAWDGSTNYADSVKGRFTISADTSKNTAYLQMNSLRAEDTAVYYCARTYGIYDIYGGYTEYVMDYWGQGTLVTVSS VL: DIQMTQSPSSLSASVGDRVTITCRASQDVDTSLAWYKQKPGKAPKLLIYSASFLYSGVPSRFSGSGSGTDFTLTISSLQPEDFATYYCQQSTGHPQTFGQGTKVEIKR | 9.82

Moving on to the next binder.
IN: Bench note: what pKd did 2B1.1.2 (antibody, V domains shown) VH: EVQLVESGGGLVQPGGSLRLSCAASGFTFTSTGISWVRQAPGKGLEWVGRYWAWDGSTNYADSVKGRFTISADTSKNTAYLQMNSLRAEDTAVYYCARTYGIYDTYDNYTEYVMDYWGQGTLVTVSS VL: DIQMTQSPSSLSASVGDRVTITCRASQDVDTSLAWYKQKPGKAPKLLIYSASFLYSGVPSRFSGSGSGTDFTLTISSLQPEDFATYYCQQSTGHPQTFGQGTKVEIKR show?
OUT: 10.04
